Could you please report measured IC50 for the items listed next?
biological target: human IBAT (Homo sapiens, UniProt Q12908); construct: expressed in transfected cells; host or cells: Baby hamster kidney (BHK) cells, clone H14; test: In vitro assay of IBAT-mediated uptake of [14C]-taurocholate (TC) in H14 cells; assay type: cell-based; conditions: H14 cells, Table 5; read-out: IC50 uM (In vitro Taurocholate Cell Uptake)
Sequence (Q12908 whole entry): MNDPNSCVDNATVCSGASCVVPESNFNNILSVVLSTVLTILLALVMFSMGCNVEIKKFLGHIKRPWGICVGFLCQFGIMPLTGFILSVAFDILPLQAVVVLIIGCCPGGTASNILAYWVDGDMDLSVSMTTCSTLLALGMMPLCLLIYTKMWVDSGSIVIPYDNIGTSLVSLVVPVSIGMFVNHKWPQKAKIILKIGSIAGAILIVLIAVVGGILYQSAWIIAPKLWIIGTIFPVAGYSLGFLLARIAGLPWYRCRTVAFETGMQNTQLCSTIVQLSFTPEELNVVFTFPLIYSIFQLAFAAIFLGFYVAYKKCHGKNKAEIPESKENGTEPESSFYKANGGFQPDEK
Write it as a number; the unit µM goes unstated.

Prompt: If you can, please state the reported IC50 value of CCCC[C@]1(CC)CS(=O)(=O)c2cc(OC)ccc2[C@H](c2ccccc2)[C@@H]1O .
Completion: 2

Prompt: If you can, please state the reported IC50 value of CCCC[C@]1(CC)CS(=O)(=O)c2ccccc2[C@@H](c2ccc(I)cc2)[C@H]1O .
Completion: 1.5

Prompt: If you can, please state the reported IC50 value of CCCC[C@]1(CC)CS(=O)(=O)c2ccc(NO)cc2[C@H](c2ccccc2)[C@@H]1O .
Completion: 3

Prompt: If you can, please state the reported IC50 value of CCCCC1(CC)CS(=O)(=O)c2ccccc2C(=C2CCCCC2)C1O (centres unmarked) [Example 10a] .
Completion: 7

Prompt: If you can, please state the reported IC50 value of CCCC[C@]1(CC)CS(=O)(=O)c2ccccc2[C@@H](c2ccc(C(=O)OC)cc2)[C@H]1O .
Completion: 1.5

Prompt: If you can, please state the reported IC50 value of CCCC[C@]1(CC)CSc2ccccc2[C@@H](c2ccccc2)[C@H]1O .
Completion: 10

Prompt: If you can, please state the reported IC50 value of CCCCC1(CC)C=C(c2ccccc2)c2ccccc2S(=O)(=O)C1 (centres unmarked) .
Completion: 50

Prompt: If you can, please state the reported IC50 value of O=S1(=O)CC2(CCCCC2)[C@@H](O)[C@@H](c2ccccc2)c2ccccc21 (relative stereo) .
Completion: 9
